System: HSV-2 MS
Assay: Plaque reduction assay, HSV-2 MS
Format: cell-based
Details: Human alphaherpesvirus 2; Table 5, wild type strain; read-out: Plaque Reduction Assay - IC50 (μM) HSV-2 MS
Description: Antiviral activity of compounds against herpesviruses such as HSV-1, HSV-2, or HCMV can be measured using plaque reduction assays. […] Plaques can be observed and counted microscopically or by staining the cells with 0.1% crystal violet in 20% ethanol. […] The IC50 values are calculated by plotting the per cent inhibition vs. concentration of compound using EXCEL software for linear regression. […]
endpoint: IC50 (µM)
Give bare numbers, in µM.

q: Bench note: what IC50 did Nc1nc2c(ncn2COCCO)c(=O)[nH]1 [ACV, Acyclovir, reference compound] show?
a: 2.4
